target.of.assay: T1, DLG3_1, Q92796
T1 sequence (Q92796 125-227, limits assumed, looked up): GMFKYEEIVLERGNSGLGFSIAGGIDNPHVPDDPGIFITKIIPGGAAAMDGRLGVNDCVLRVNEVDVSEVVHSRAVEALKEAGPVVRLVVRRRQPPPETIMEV
procedure.text: holdup assay
Parameters: key: below the threshold = too weak to quantify, mostly under pKd 3.1 to 4
condition.label: plain residues with an end cap or a label only (N-terminal biotin on a linker: ttds)
recorded.metric: pKd
Enter the number alone.

query: Identify pKd associated with the binder SSRTRRETQL [HPV16-E6, P03126]
result: 3.96

query: Identify pKd associated with the binder RSLEEEESQL [GRASP, Q7Z6J2]
result: 3.6

query: Identify pKd associated with the binder PKTPPTDTSV [KIR3DL3, Q8N743]
result: 3.69

query: Identify pKd associated with the binder SRPQRTQTQV [HPV67-E6, A4U7F2]
result: 3.89

query: Identify pKd associated with the binder ERKLSSESQV [LRP4, O75096]
result: 3.81
